Target: KRAS G12D (Homo sapiens (Human), UniProt P01116, G12D)
Sequence (P01116-2 other isoform, or with tags, fused parts or gaps G12D): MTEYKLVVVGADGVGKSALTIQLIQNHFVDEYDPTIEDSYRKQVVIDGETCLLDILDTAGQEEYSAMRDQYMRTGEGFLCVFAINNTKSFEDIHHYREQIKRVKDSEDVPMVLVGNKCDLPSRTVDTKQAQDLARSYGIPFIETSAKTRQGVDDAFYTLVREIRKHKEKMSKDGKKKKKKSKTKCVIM
Assay: KRAS G12D LoEnz Biochemical Assay, BODIPY-GDP Exchange TR-FRET (SOS1-mediated nucleotide exchange)
Settings: read-out: KRas (G12D) GDP HTRF IC50
measured property: log10 of IC50 (log10 of the value in nM)
Scale: log10; quantity: IC50; unit before log: nM

Cn1ncc2ccc(F)c(-c3nc4c5c(nc(OC[C@@]67CCCN6C[C@H](F)C7)nc5c3F)N3C[C@H]5CC[C@H](N5)[C@H]3CO4)c21; 2.95
Cc1nc(N)cc(-c2nc3c4c(nc(OC[C@@]56CCCN5C[C@H](F)C6)nc4c2F)N2C[C@H]4CC[C@H](N4)[C@H]2[C@H](C)O3)c1C(F)(F)F; -0.68
Cc1c(F)c(N)cc(-c2nc3c4c(nc(OC[C@@H]5CC[C@H]6C[C@@H](F)CN56)nc4c2F)N2C[C@H]4CC[C@H](N4)[C@H]2[C@H](C)O3)c1C(F)(F)F (single isomer, unassigned) [152 (isomer 1)]; -1.00
Cc1cc(N)c(F)c(-c2nc3c4c(nc(OCC56CCN5CC(F)(F)C6)nc4c2F)N2C[C@H]4CC[C@H](N4)[C@H]2[C@H](C)O3)c1C(F)(F)F (mixture of isomers); -0.64

The reported log10 of IC50 of the compound Cc1nc(N)cc(-c2nc3c4c(nc(OC[C@@]56CCCN5CC5(CC5(F)F)C6)nc4c2F)N2C[C@H]4CC[C@H](N4)[C@H]2[C@H](C(F)(F)F)O3)c1C(F)(F)F (some centres unmarked) was -0.31
